The measurements presented in this section are drawn from patent US20040024024A1.

Target: Human recombinant MMP-13 (Homo sapiens)
Construct: made in house; host or cells: baculovirus / insect cells
Test: In vitro MMP inhibition, IC50 determination (fluorogenic substrate I)
Type: biochemical
Details: value outside parentheses (Ki in parenthesis)
pIC50: −log10 of the molar value.
reportedMetric: pIC50

These solved cases illustrate the format of a correct answer.
{"structure": "O=C(NCCCOc1ccc(S(=O)(=O)C2(C(=O)NO)CCOCC2)cc1)c1ccc(Cl)nc1", "measuredResult": 8.85}
{"structure": "O=C(CCCOc1ccc(S(=O)(=O)C2(C(=O)NO)CCOCC2)cc1)c1cccc(-c2ccccc2)c1", "measuredResult": 8.74}
{"structure": "Cc1cc(C)c(C(=O)NCCCOc2ccc(S(=O)(=O)C3(C(=O)NO)CCOCC3)cc2)c(C)c1", "measuredResult": 7.43}
{"structure": "COc1ccc2cc(C(=O)NCCCOc3ccc(S(=O)(=O)C4(C(=O)NO)CCOCC4)cc3)ccc2c1", "measuredResult": 9.70}
{"structure": "COc1ccccc1C(=O)NCCCOc1ccc(S(=O)(=O)C2(C(=O)NO)CCOCC2)cc1", "measuredResult": 8.15}

I: COc1ccc(NC(=O)NCCOc2ccc(S(=O)(=O)C3(C(=O)NO)CCOCC3)cc2)cc1
II: O=C(NO)C1(S(=O)(=O)c2ccc(OCCCOc3ccc(C(F)(F)F)cc3)cc2)CCN(C2CC2)CC1
I'm curious whether I or II has the smaller pIC50 number. Which is it? Return value: the label identifying the chosen record.
I
